Each entry below carries its recorded Enzyme Activity Endpoint Assay: IgG.
target: pooled human IgG (human IgG1,2,3 and 4)
The answer is to be given in ng/µL; state only the numeric part.

PROTEIN | VALUE
PRT-94 (protein) MANQEIRYSEETPYHVTSVWTKGVTPPAKFTQGEDVFHAPYVANQGWYDITKTFNGKDDLLCGAATAGNMLHWWFDQNKEKIEAYLKKHPDKQKIMFGDQELLDVRKVINTKGDQTNSELFNYFRDKAFPGLSARRIGVMPDLVLDMFINGYYLNVYKTQTTDVNRTYQEKDRRGGIFDAVFTRGDQSKLLTSRHDFKEKTLKEISDLIKKELTEGKALGLSHTYANVRINHVINLWGADFDSNGNLKAIYVTDSDSNASIGMKKYFVGVNSAGKVAISAKEIKEDNIGAQVLGLFTLSTGQDSWNQTN | 0

Fill in the blank: the reported Enzyme Activity Endpoint Assay: IgG of PRT-275 (protein) MVTSVWTKGVTPPTDFIYGEDVLHAPYKAGQGWYDITKLFNGKDNLLCGAATAGNMLHWWFDQNKEQIENYLKKHPEKQKIIFNNQELFDLKAAIDTKDSQLDSKLFDYFKEKAFPNLSTKHLGVFPDHVIDMFINGYRLSLLNHGPTPVKRGSKDKRGGIFDAVFTRGVQSKLLTNRHDLKNKTLKEISDLIKQELTEGKALGISHTYANGRINHVINLWGADFDAEGNLEAIYVTDSDTNPSIGMKKYFVGVNSSGKVAISAKEIEEDNIGAQVLGLFTLSTGQDIWNQTN is ____.
97
